# tgt: T1, human serum albumin (HSA), full length (human, UniProt P02768 25-609)
# T1 construct: mature; Immobilized on CM5 chip (SPR) or coated on plates (ELISA)
# experimental_protocol: SPR off-rate, immobilized HSA, 500 nM Adnectin, 25 C
measured_parameter: koff (s⁻¹)

binder | unit_tag | koff
ADX_6727_D02 (R30N) (designed binder, Full His6-tagged entry) MGVSDVPRDLEVVAATPTSLLISWDAPAVTVRYYRITYGNEVQKYSDLGPLYIYQEFTVPGSKSTATISGLKPGVDYTITVYAVTGSGESPASSKPISINYRTEIDKPSQHHHHHH | s⁻¹ | 0.00135
ADX_6727_B11 (Q33D/K85S) (designed binder, Full His6-tagged entry) MGVSDVPRDLEVVAATPTSLLISWDAPAVTVRYYRITYGREVDKYSDLGPLYIYQEFTVPGSKSTATISGLKPGVDYTITVYAVTGSGESPASSSPISINYRTEIDKPSQHHHHHH | s⁻¹ | 0.0151
ADX_6727_D01 (K85T) (designed binder, Full His6-tagged entry) MGVSDVPRDLEVVAATPTSLLISWDAPAVTVRYYRITYGREVQKYSDLGPLYIYQEFTVPGSKSTATISGLKPGVDYTITVYAVTGSGESPASSTPISINYRTEIDKPSQHHHHHH | s⁻¹ | 0.000259

A = ADX_6727_G10 (Y35S/K85A) (designed binder, Full His6-tagged entry) MGVSDVPRDLEVVAATPTSLLISWDAPAVTVRYYRITYGREVQKSSDLGPLYIYQEFTVPGSKSTATISGLKPGVDYTITVYAVTGSGESPASSAPISINYRTEIDKPSQHHHHHH
B = ADX_6727_D06 (Y44A/K85S) (designed binder, Full His6-tagged entry) MGVSDVPRDLEVVAATPTSLLISWDAPAVTVRYYRITYGREVQKYSDLGPLYIAQEFTVPGSKSTATISGLKPGVDYTITVYAVTGSGESPASSSPISINYRTEIDKPSQHHHHHH
Asked: Kindly identify which of A and B has the larger recorded koff value. Please reply using the label of the selected record.
Given back: B
(B: 0.00546 s⁻¹, A: 0.000892 s⁻¹)

P = ADX_6727_C03 (Y35S) (designed binder, Full His6-tagged entry) MGVSDVPRDLEVVAATPTSLLISWDAPAVTVRYYRITYGREVQKSSDLGPLYIYQEFTVPGSKSTATISGLKPGVDYTITVYAVTGSGESPASSKPISINYRTEIDKPSQHHHHHH
Q = ADX_6727_B05 (I43S/K85T) (designed binder, Full His6-tagged entry) MGVSDVPRDLEVVAATPTSLLISWDAPAVTVRYYRITYGREVQKYSDLGPLYSYQEFTVPGSKSTATISGLKPGVDYTITVYAVTGSGESPASSTPISINYRTEIDKPSQHHHHHH
Asked: Kindly identify which of P and Q has the larger recorded koff value. Please reply using the label of the selected record.
Given back: Q
(Q: 0.00749 s⁻¹, P: 0.00107 s⁻¹)
